Molecular target: T1, htau40 (Homo sapiens, UniProt P10636)
T1 construct: Full length tau (hT40)
T1 sequence (P10636 1-441 isoform P10636-8): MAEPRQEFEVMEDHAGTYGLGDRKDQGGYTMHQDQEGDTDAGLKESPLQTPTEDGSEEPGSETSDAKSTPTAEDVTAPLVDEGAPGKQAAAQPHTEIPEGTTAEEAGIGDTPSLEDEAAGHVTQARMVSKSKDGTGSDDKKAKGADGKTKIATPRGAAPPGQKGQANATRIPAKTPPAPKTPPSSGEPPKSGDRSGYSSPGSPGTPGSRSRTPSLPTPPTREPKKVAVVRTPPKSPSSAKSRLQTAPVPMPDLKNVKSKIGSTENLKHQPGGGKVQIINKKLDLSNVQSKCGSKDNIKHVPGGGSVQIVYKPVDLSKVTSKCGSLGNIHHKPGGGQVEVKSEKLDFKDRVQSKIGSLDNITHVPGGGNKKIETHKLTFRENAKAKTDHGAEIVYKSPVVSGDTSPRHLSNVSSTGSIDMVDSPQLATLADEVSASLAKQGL
Assay: Biacore X100 SPR kinetics of anti-tau mAbs on immobilised htau40
Assay type: binding
Details: second Table 25; newly converted mAbs, hT40
measure name: ka (M⁻¹ s⁻¹)
Provide the reading as a plain figure in M⁻¹ s⁻¹.

MD9: anti-tau clone, Table 10; SEQ ID NO: 373 (protein, MD9 amino acid sequence) scFv: QVRLQESGPSLVKSSQTLSLTCTVSGFSLTRESIAWVRQAPGKVPEWLGGVGIDGTSYYSPALKSRLSITRDTSKSQASLSLSSVATEDTAMYYCARNYIDFEYWGPGLLVTVSSEGKSSGASGESKVDDQAVLTQLSSVSGSLGQRISITCSGSSSNVGIYDVSWFQQLPGSGLRTVIYGTNNRPSGVPDRFSGSRSGNTATLTISSLQSEDEAIYYCAAGDSSTIAVFGSGTRLTVLG; 66200
3bG4: N-terminal anti-tau clone, Table 6; SEQ ID NO: 425 (protein, 3bG4 amino acid sequence) QVQLQESGPSLVKPSQTLSLTCTISGFSLISNGVGWVRQAPGKVPEWVGDIASSGKAYSNPALKSRLSITRDTSKSQVSLSLRSVTTEDTAVYYCVRCRDGGVTYGYDIDYWGPGLLVTVSSEGKSSGASGESKVDDQAVLTQPSSVSKSLGQSVSITCSGSTSNVGSGNDVSWFQQVPGSAPKLLFYGATNRASGVPDRFSGSRSGNTATLTITSLQAEDEADYYCGSYDSNSGGIFGSGTRLTVLG; 4.54e+06
3aG3: N-terminal anti-tau clone, Table 6; SEQ ID NO: 424 (protein, 3aG3 amino acid sequence) QVQLQESGPSLVKPSQTLSLTCTVSGFSLSSNGVGWVRQAPGKVPEWVGDISSSGKAYANPALKSRLSITRDTAKTQVFLSLSSVTTEDTAVYYCVRCRDGGVSYGYDIDYWGPGLLVTVSSEGKSSGASGESKVDDQAVLTQPPSVSGSPGQRVSITCSGSSSNIGGGNYLSWFQQVPGSAPKLLIYGATSRASGVPDRFSGSRSGNTATLTISSLQAEDEADYYCASFDTSSGGIFGAGTRLTVLG; 1.532e+07
CE2: anti-tau core clone, Table 10; SEQ ID NO: 366 (protein, CE2/E1B8 amino acid sequence) scFv: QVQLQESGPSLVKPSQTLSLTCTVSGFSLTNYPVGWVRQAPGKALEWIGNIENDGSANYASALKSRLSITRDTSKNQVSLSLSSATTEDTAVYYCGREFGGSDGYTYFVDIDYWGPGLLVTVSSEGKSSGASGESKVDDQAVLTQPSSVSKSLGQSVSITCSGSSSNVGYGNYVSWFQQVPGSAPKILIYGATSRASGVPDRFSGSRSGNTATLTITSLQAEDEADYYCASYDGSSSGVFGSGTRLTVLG; 323800

Shift focus to the following entry.
[in] May I ask what ka has been recorded for 3aH6: N-terminal anti-tau clone, Table 6; SEQ ID NO: 423 (protein, 3aH6 amino acid sequence) QVQLQESGPSLVKPSQTLSLTCTVSGFSLSSNGVGWVRQAPGKVPEWLGDISSVGKKYANPALKSRLSFTRDTSKSQVSLSLSSVTTEDTAVYYCVKCRDGGVTYGYDIDYWGPGLLVTASSEGKSSGASGESKVDDQAVVTQPSSVSGSLGQSVSITCSGSSGNVGYGDYVSWFQQFHGSAPKLLIYGATNLASGVPARFSGSRSGNTATLTISSLHAEDEADYYCASYDSSSGGVFGSGTRLTVLG ?
[out] 3.128e+06
